Each entry below carries its reported melting point.

Consider the reported melting point for these compounds:
O=S(=O)(Nc1cc(Cl)c(Oc2cncc(Cl)c2)c(Cl)c1)c1ccc(C(F)(F)F)cc1Cl [Compound 108.6] : 185 to 189 °C
COc1cc(NS(=O)(=O)c2ccc(Cl)cc2Cl)ccc1Oc1cc(Cl)cc(Cl)c1 [Compound 33.4] : 128 to 131 °C
COc1ccc(S(=O)(=O)Nc2ccc(Oc3cc(F)cc(F)c3)c(OC)c2)cc1 [Compound 33.8] : 129 to 133 °C

*Q* Tell me the measured melting point of COc1cc(NS(=O)(=O)c2ccc(C(F)(F)F)cc2)ccc1Oc1cc(F)cc(F)c1 [Compound 33.5] , please.
*A* 141 to 143 °C

* * *

- tested system: PPARγ (UniProt P37231)
- Construct: fused on or other part: GST tag (PPARgamma-GST fusion protein)
- test: PPARγ ligand binding assay utilizing [3H]-BRL 49653 as the radioligand
- condition details: concentration reducing by 50% the specific binding of [3H]-BRL 49653
reported property: IC50

O=S(=O)(Nc1cc(Cl)c(Sc2nc3cc(C(F)(F)F)ccc3s2)c(Cl)c1)c1ccc(C(F)(F)F)cc1Cl : < 1000 nM
Cc1cc(S(=O)(=O)Nc2ccc(Sc3nc4cccc(Cl)c4s3)c(Cl)c2)c(Cl)cc1Cl : < 1000 nM
O=S(=O)(Nc1cc(Cl)c(Sc2ccc3ccccc3c2)c(Cl)c1)c1ccc(C(F)(F)F)cc1Cl : < 1000 nM

Now look at this entry.
*Q* Tell me the measured IC50 of N#Cc1cc(NS(=O)(=O)c2ccc(Cl)cc2Cl)ccc1Oc1cc(F)cc(F)c1 , please.
*A* < 10000 nM

* * *

reported property: melting point

O=S(=O)(Nc1cc(Cl)c(Oc2cncc(Cl)c2)c(Cl)c1)c1ccc(I)cc1 : 211 to 214 °C
COc1cc(NS(=O)(=O)c2ccc(Cl)cc2Cl)ccc1Oc1cc(F)cc(F)c1 : 120 to 124 °C
O=S(=O)(Nc1cc(Cl)c(Oc2cncc(Cl)c2)c(Cl)c1)c1ccc(Cl)c(Cl)c1 : 199 to 200 °C

Now look at this entry.
*Q* Tell me the measured melting point of O=S(=O)(Nc1cc(Cl)c(Oc2nc3ccc(Cl)cc3s2)c(Cl)c1)c1ccc(C(F)(F)F)cc1Cl , please.
*A* 82 to 84 °C

* * *

Each entry below carries its reported melting point.

COc1cc(OC)cc(Oc2ccc(NS(=O)(=O)c3ccc(C(F)(F)F)cc3Cl)cc2OC)c1 : 72 to 79 °C
O=S(=O)(Nc1cc(Cl)c(Oc2nc3ccc(Cl)cc3s2)c(Cl)c1)c1ccc(Cl)cc1Cl : 73 to 75 °C
COc1ccc(S(=O)(=O)Nc2ccc(Oc3cc(OC)cc(OC)c3)c(OC)c2)cc1 : 92 to 95 °C
COc1cc(OC)cc(Oc2ccc(NS(=O)(=O)c3ccc(Cl)cc3Cl)cc2OC)c1 : 100 to 103 °C
Cc1ccc(Sc2c(Cl)cc(NS(=O)(=O)c3ccc(C(F)(F)F)cc3Cl)cc2Cl)cc1C : 156 to 158 °C

Now look at this entry.
*Q* Tell me the measured melting point of COc1cc(NS(=O)(=O)c2ccc(C(F)(F)F)cc2)ccc1Oc1cc(Cl)cc(Cl)c1 , please.
*A* 165 to 166 °C

Cited source: patent US7626033B2
